# maps each entry to its activation
Assay: FP signal interference without PKA proteins, confirmation, artefact control for PKA-R1A activator project, biochemical, fluorescence polarization, triplicate (AID 504799);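 further: no PKA protein present so any polarization rise reflects compound interference; 0% = tracer peptide mix alone and 100% = mix with added PKA catalytic subunit; higher means stronger polarization artifact and likely false positive in parent screen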
Settings: Cy5-IP20 peptide alone, fluorescence polarization artifact counterscreen; at 11.4 µM; active compounds read high
Some of the results follow.
Give the value in % but do not write % after it.

Cc1ccc2nc3c(cc(C(=O)NCCc4ccccc4)c(=N)n3CC3CCCO3)c(=O)n2c1 (centres undefined) = 4
O=C(Nc1ccc2c(c1)[C@@H]1C[C@@H](CC(=O)N3CCCCC3)O[C@@H](CO)[C@@H]1O2)NC1CCCCC1 = 3.18

Query block: Query activation for CCC(Oc1ccccc1C)C(=O)Nc1ccc(S(=O)(=O)Nc2cc(C)on2)cc1 (centres undefined)
Result block: 2.96

Query block: Query activation for COc1ccccc1N1CC(C(=O)Nc2nnc(SCC(=O)NC(C)C)s2)CC1=O (centres undefined)
Result block: -0.21
